target: CDK2 (Homo sapiens)
property_name: IC50

Record "CC(=O)Nc1ccc(C(=O)Nc2sc(Nc3ccccc3)nc2C(N)=O)cc1" has CDK2 (Homo sapiens) IC50 equal to > 300 nM

----------
Molecular target: JAK3 (Homo sapiens, UniProt P52333)
Sequence (P52333 1-1124): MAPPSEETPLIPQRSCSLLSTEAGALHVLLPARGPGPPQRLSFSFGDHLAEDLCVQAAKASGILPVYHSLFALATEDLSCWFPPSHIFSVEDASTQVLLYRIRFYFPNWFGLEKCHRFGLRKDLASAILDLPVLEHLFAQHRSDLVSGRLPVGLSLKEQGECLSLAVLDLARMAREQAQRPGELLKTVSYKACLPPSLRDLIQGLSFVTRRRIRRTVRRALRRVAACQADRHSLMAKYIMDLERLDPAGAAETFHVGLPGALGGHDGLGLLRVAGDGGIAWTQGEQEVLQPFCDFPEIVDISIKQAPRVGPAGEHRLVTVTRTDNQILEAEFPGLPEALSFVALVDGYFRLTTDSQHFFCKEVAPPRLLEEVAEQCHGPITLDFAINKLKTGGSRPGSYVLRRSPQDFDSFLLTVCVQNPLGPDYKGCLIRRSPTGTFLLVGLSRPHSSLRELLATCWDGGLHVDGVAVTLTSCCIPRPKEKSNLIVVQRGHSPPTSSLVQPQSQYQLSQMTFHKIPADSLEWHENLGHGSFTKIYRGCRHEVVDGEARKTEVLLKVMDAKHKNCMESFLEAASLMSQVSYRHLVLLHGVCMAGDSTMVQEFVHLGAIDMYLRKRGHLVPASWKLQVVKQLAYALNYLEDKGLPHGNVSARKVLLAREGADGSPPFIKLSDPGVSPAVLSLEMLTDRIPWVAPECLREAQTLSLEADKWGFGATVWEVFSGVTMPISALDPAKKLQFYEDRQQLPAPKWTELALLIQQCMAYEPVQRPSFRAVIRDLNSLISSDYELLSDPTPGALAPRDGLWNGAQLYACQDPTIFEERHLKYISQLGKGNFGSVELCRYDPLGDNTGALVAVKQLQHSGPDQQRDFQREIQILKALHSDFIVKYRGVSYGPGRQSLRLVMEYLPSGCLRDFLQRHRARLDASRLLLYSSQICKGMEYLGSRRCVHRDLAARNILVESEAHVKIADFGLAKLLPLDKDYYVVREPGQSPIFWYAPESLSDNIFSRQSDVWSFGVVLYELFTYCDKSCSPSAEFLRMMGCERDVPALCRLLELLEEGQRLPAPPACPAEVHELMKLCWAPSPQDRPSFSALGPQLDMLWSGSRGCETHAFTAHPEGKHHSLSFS
pIC50: −log10 of the molar value.
property_name: pIC50

Sure, the documented pIC50 for CC(=O)Nc1ccc(C(=O)Nc2sc(Nc3ccccc3)nc2C(N)=O)cc1 [Compound 1] is < 6.52
